System under test: T1, human CRH receptor type 2 (human, UniProt Q13324 1-411)
T1 sequence (looked up): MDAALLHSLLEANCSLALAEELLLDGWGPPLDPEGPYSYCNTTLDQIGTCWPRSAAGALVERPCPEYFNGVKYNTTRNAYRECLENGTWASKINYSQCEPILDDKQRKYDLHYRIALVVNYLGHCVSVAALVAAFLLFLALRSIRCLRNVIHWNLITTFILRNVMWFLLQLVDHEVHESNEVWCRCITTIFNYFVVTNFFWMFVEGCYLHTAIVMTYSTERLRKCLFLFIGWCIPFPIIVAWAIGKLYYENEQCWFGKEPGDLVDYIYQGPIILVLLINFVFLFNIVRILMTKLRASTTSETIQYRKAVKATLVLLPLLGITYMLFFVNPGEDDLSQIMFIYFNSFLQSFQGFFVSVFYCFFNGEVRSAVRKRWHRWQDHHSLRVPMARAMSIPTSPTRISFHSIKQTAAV
Assay procedure: cell-based or functional assay
No end group written: not given here.
Assay metric: Log DR against h-SCP, cAMP

These recorded examples may help you get a feel for the data.
Binder	Log DR against h-SCP, cAMP
TKFTLSLDVPTNIMNLLCNIAKAKNLRAQAAANAHLMAQI (NES-PEG (about 20 kDa) on Cys 18; C-terminal amide) [Pegylated Cys-variant CRHR2 peptide agonist (NES linker, PEG about 20 kDa), SEQ ID NO: 72]	1.5 log10 ratio
TKFTLSLDVPTNIMNLLFNIAKAKNLRAQAAANAHLCAQI-NH2 [Cys-variant CRHR2 peptide agonist, SEQ ID NO: 38]	> 2.95 log10 ratio
TKFTLSLDVPTNIMNLLFNIAKAKNLRAQAACNAHLMAQI-NH2 [Cys-variant CRHR2 peptide agonist, SEQ ID NO: 33]	0.45 log10 ratio
TKCTLSLDVPTNIMNLLFNIAKAKNLRAQAAANAHLMAQI-NH2 [Cys-variant CRHR2 peptide agonist, SEQ ID NO: 4]	1.03 log10 ratio
TKFTLSLDVPTNIMNLLFNIAKAKNCRAQAAANAHLMAQI (NES-PEG (about 20 kDa) on Cys 26; C-terminal amide) [Pegylated Cys-variant CRHR2 peptide agonist (NES linker, PEG about 20 kDa), SEQ ID NO: 80]	1.75 log10 ratio

// switching to the query binder
query: Provide one value: measured Log DR against h-SCP, cAMP of TKFTLSLDVPTNIMNLLFNIAKAKNLRAQAAANCHLMAQI-NH2 [Cys-variant CRHR2 peptide agonist, SEQ ID NO: 35]
result: 0.7 log10 ratio
